- System Name: hPIV-3 strain C243 neuraminidase (UniProt P08492, species not given/STRAIN_C243)
- Sequence (P08492 whole entry, change not shown): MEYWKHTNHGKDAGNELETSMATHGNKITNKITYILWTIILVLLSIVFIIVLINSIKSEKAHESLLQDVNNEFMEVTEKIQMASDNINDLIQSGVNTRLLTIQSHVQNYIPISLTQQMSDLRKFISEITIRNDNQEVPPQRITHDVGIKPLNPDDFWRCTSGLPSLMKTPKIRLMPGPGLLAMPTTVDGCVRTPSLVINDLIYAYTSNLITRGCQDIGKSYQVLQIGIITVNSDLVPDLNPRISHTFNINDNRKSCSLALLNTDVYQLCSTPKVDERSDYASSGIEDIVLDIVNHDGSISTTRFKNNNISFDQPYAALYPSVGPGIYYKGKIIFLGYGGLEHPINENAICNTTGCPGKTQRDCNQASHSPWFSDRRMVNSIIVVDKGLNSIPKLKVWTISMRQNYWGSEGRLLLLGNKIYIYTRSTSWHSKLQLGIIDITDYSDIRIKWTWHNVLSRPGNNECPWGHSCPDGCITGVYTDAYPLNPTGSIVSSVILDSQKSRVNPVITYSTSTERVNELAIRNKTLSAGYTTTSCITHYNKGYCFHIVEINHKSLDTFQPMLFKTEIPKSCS
- Assay type: biochemical
- Run Conditions: hPIV-3 strain C243; Table 1; read-out: NI (IC50)
hey, just use y if measured IC50 is less than 9 µM, otherwise n

Smiles String: CC(=O)N[C@H]1[C@H]([C@H](O)[C@H](O)CO)OC(C(=O)O)=C[C@@H]1n1cc(-c2ccccc2NS(C)(=O)=O)nn1
System Name: hPIV-3 strain C243 neuraminidase (UniProt P08492, species not given/STRAIN_C243)
Label Value: n
//
Smiles String: CC(=O)N[C@@H]1[C@@H]([C@@H](O)[C@@H](O)CO)OC(C(=O)O)=C[C@H]1n1cc(-c2ccccc2NC(=O)CCCCc2cn(CCCCCC(=O)Nc3ccccc3-c3cn([C@H]4C=C(C(=O)O)O[C@@H]([C@H](O)[C@H](O)CO)[C@@H]4NC(C)=O)nn3)nn2)nn1
System Name: hPIV-3 strain C243 neuraminidase (UniProt P08492, species not given/STRAIN_C243)
Label Value: n
//
Smiles String: O=C(O)C1=C[C@H](n2cc3ccc4ccccc4c3n2)[C@@H](NC(=O)C(F)(F)F)[C@H]([C@H](O)[C@H](O)CO)O1
System Name: hPIV-3 strain C243 neuraminidase (UniProt P08492, species not given/STRAIN_C243)
Label Value: y
//
Smiles String: CC(=O)N[C@H]1[C@H]([C@H](O)[C@H](O)CO)OC(C(=O)O)=C[C@@H]1n1cc(-c2ccccc2NC(=O)CCCCCN=[N+]=[N-])nn1
System Name: hPIV-3 strain C243 neuraminidase (UniProt P08492, species not given/STRAIN_C243)
Label Value: n
//
Smiles String: COCc1cn(CCCCCC(=O)Nc2ccccc2-c2cn([C@H]3C=C(C(=O)O)O[C@@H]([C@H](O)[C@H](O)CO)[C@@H]3NC(C)=O)nn2)nn1
System Name: hPIV-3 strain C243 neuraminidase (UniProt P08492, species not given/STRAIN_C243)
Label Value: n
//
Smiles String: O=C(O)C1=C[C@H](n2cc3ccccc3n2)[C@@H](NC(=O)C(F)(F)F)[C@H]([C@H](O)[C@H](O)CO)O1
System Name: hPIV-3 strain C243 neuraminidase (UniProt P08492, species not given/STRAIN_C243)
Label Value: n
//
Smiles String: CC(=O)N[C@H]1[C@H]([C@H](O)[C@H](O)CO)OC(C(=O)O)=C[C@@H]1n1cc(-c2ccccc2NC(=O)CCCCCCCCCCC(=O)Nc2ccccc2-c2cn([C@H]3C=C(C(=O)O)O[C@@H]([C@H](O)[C@H](O)CO)[C@@H]3NC(C)=O)nn2)nn1
System Name: hPIV-3 strain C243 neuraminidase (UniProt P08492, species not given/STRAIN_C243)
Label Value: y
//
Smiles String: CC(=O)N[C@H]1[C@H]([C@H](O)[C@H](O)CO)OC(C(=O)O)=C[C@@H]1n1cc(-c2ccccc2NC(=O)CCCCCn2cc(-c3ccccc3)nn2)nn1
System Name: hPIV-3 strain C243 neuraminidase (UniProt P08492, species not given/STRAIN_C243)
Label Value: n

###

- System Name: hPIV-3 strain C243 neuraminidase (UniProt P08492, species not given/STRAIN_C243)
- Assay type: biochemical
- Run Conditions: hPIV3 C243; Table 2; read-out: NI IC50
pIC50: −log10 of the molar value.
Please note: condition met applies when pIC50 is 4 or greater, and condition not met applies otherwise.

Smiles String: COc1c(F)c(F)cc(C(=O)Nc2ccccc2-c2cn([C@H]3C=C(C(=O)O)O[C@@H]([C@H](O)[C@H](O)CO)[C@@H]3NC(C)=O)nn2)c1F
Label Value: condition met
//
Smiles String: O=C(O)C1=C[C@H](n2cc3c(Br)cccc3n2)[C@@H](NC(=O)C(F)(F)F)[C@H]([C@H](O)[C@H](O)CO)O1
Label Value: condition met
//
Smiles String: CC(C)C(=O)N[C@H]1[C@H]([C@H](O)[C@H](O)CO)OC(C(=O)O)=C[C@@H]1n1cc2ccc(C(=O)O)cc2n1
Label Value: condition not met
//
Smiles String: CC(C)C(=O)N[C@H]1[C@H]([C@H](O)[C@H](O)CO)OC(C(=O)O)=C[C@@H]1n1cc2cc(C(=O)O)ccc2n1
Label Value: condition not met
//
Smiles String: N#Cc1ccc2cn([C@H]3C=C(C(=O)O)O[C@@H]([C@H](O)[C@H](O)CO)[C@@H]3NC(=O)C(F)(F)F)nc2c1
Label Value: condition met
//
Smiles String: CC(=O)N[C@H]1[C@H]([C@H](O)[C@H](O)CO)OC(C(=O)O)=C[C@@H]1n1cc(-c2ccccc2NC(=O)CCNS(=O)(=O)Cc2ccccc2)nn1
Label Value: condition met
//
Smiles String: CC(=O)N[C@H]1[C@H]([C@H](O)[C@H](O)CO)OC(C(=O)O)=C[C@@H]1n1cc(-c2ccccc2NC(=O)c2cccc(OC(F)(F)F)c2)nn1
Label Value: condition met
//
Smiles String: O=C(O)C1=C[C@H](n2cc3ccc(F)cc3n2)[C@@H](NC(=O)C(F)(F)F)[C@H]([C@H](O)[C@H](O)CO)O1
Label Value: condition met
//
Smiles String: O=C(O)C1=C[C@H](n2cc3cc4c(cc3n2)OCO4)[C@@H](NC(=O)C(F)(F)F)[C@H]([C@H](O)[C@H](O)CO)O1
Label Value: condition met
//
Smiles String: COc1ccc(OC)c2nn([C@H]3C=C(C(=O)O)O[C@@H]([C@H](O)[C@H](O)CO)[C@@H]3NC(=O)C(F)(F)F)cc12
Label Value: condition met
//
Smiles String: N#Cc1ccc2nn([C@H]3C=C(C(=O)O)O[C@@H]([C@H](O)[C@H](O)CO)[C@@H]3NC(=O)C(F)(F)F)cc2c1
Label Value: condition met
//
Smiles String: CC(=O)N[C@H]1[C@H]([C@H](O)[C@H](O)CO)OC(C(=O)O)=C[C@@H]1n1cc(-c2ccccc2NC(=O)CCNC(=O)C2CC2)nn1
Label Value: condition met
